Tested on: PANC-1
assay procedure: Inhibition of cells growth by colorimetric assay (SRB)
assay context: Homo sapiens, PANC-1, 48 h, read-out: PANC-1 LC50
quantity measured: CC50

Known results for compounds:
COc1c(C)cc2c(c1O)[C@H]1N[C@@H](C2)[C@H](O)N2C1[C@@H]1SCC(NC(C)=O)C(=O)OC[C@H]2c2c3c(c(C)c(OC(C)=O)c21)OCO3 (some centres unmarked): 2.6 µM
COc1ccc2[nH]c3c(c2c1)CCN[C@]31CS[C@@H]2c3c(OC(C)=O)c(C)c4c(c3[C@H](COC1=O)N1C2[C@@H]2N[C@@H](Cc3cc(C)c(OC)c(O)c32)[C@@H]1O)OCO4 (some centres unmarked): 13 µM
COc1cc2c(cc1O)CCN[C@]21CS[C@@H]2c3c(OC(C)=O)c(C)c4c(c3[C@H](COC1=O)N1[C@@H]2[C@H]2c3c(cc(C)c(OC)c3O)C[C@@H]([C@@H]1O)N2C)OCO4 [Et-743, ecteinascidin 743, reference compound]: 0.0399 µM
COc1cc2c(cc1O)CCN[C@]21CS[C@@H]2c3c(OC(C)=O)c(C)c4c(c3[C@H](CNC1=O)N1C2[C@H]2c3c(cc(C)c(OC)c3O)C[C@@H]([C@@H]1C#N)N2C)OCO4 (some centres unmarked): 13 µM

Field: next compound
CC50 for C=CCN1[C@@H]2c3c(cc(C)c(OC)c3O)C[C@H]1[C@H](C#N)N1C2[C@@H]2SC[C@]3(NCCc4c3[nH]c3ccccc43)C(=O)OC[C@H]1c1c3c(c(C)c(OC(C)=O)c12)OCO3 (some centres unmarked) is 12.7 µM

----------
System: DU-145
assay procedure: Inhibition of cells growth by colorimetric assay (SRB)
assay context: read-out: LC50 DU145; DU145; SRB, 48 hours exposure
Field: CC50. Provide a value for each of the molecules that follow.
Give bare numbers, in µM.

Consider the worked cases shown below.
C=CCN1C2Cc3cc(C)c(OC)c(O)c3C1C1C3SCC(NC(C)=O)C(=O)OCC(c4c5c(c(C)c(OC(C)=O)c43)OCO5)N1C2C#N (stereo not drawn): 0.125
COc1c(C)cc2c(c1O)C1C3C4SCC(NC(C)=O)C(=O)OCC(c5c6c(c(C)c(OC(C)=O)c54)OCO6)N3C(C#N)C(C2)N1C(C)=O (stereo not drawn): 10.3

Sample C=CCN1C2Cc3cc(C)c(OC)c(O)c3C1C1C3SCC(NC(=O)CC)C(=O)OCC(c4c5c(c(C)c(OC(C)=O)c43)OCO5)N1C2C#N (stereo not drawn) ; CC50 observed: 14.2

----------
What IC (TGI) was measured for each of the following?
System: DU-145
assay procedure: Inhibition of cells growth by colorimetric assay (SRB)
assay context: Homo sapiens, DU-145, 48 h, read-out: TGI DU145
Give bare numbers, in µM.

C=CCN1[C@@H]2c3c(cc(C)c(OC)c3O)C[C@H]1[C@H](C#N)N1C2[C@@H]2SCC(N)C(=O)OC[C@H]1c1c3c(c(C)c(OC(C)=O)c12)OCO3 (stereo partly drawn): 1.02
CCCCCCCCCCCCCCCC(=O)NC1CS[C@@H]2c3c(OC(C)=O)c(C)c4c(c3[C@H](COC1=O)N1C2[C@@H]2N[C@@H](Cc3cc(C)c(OC)c(O)c32)[C@@H]1O)OCO4 (stereo partly drawn): 0.564

Note: attention shifts to another entry.
For this molecule ( COc1c(C)cc2c(c1O)[C@H]1N[C@@H](C2)[C@H](O)N2C1[C@@H]1SCC(NC(C)=O)C(=O)OC[C@H]2c2c3c(c(C)c(OC(C)=O)c21)OCO3 (stereo partly drawn) ), measured IC (TGI) is 0.00955
